Overview of reported pIC50 across a group of compounds:
# Assay: Antiinflammatory activity in human neutrophils assessed as inhibition of IL8-induced chemotaxis preincubated for 10 mins
# Type: functional, cell-based
# Experimental Setup: Neutrophil
pIC50: −log10 of the molar value.
Endpoint Name: pIC50

• CCOC(=O)c1cnn2c1N(C(=O)Nc1cccc(F)c1)C(c1ccccc1)C2 (configuration not stated) = 6.95
• NC(=O)c1cnn2c1N(C(=O)Nc1cccc(F)c1)C(c1ccccc1)C2 (configuration not stated) = 8.92
• CCOC(=O)c1cnn2c1N(C(=O)Nc1cccc3ccccc13)C(c1ccccc1)C2 (configuration not stated) = 6.69
• O=C(c1cnn2c1N(C(=O)Nc1cccc(F)c1)C(c1ccccc1)C2)N1CCCCC1 (configuration not stated) = 8.92

====

# Assay: Antiinflammatory activity in human neutrophils assessed as inhibition of IL8-induced chemotaxis preincubated for 10 mins
# Type: functional, cell-based
# Experimental Setup: Neutrophil
pIC50: −log10 of the molar value.
Endpoint Name: pIC50

• O=C(NC1CC1)c1cnn2c1N(C(=O)Nc1ccccc1)C(c1ccccc1)C2 (stereo not given) = 7.88
• CCOC(=O)c1cnn2c1N(C(=O)Nc1ccccc1F)C(c1ccccc1)C2 (stereo not given) = 8.12
• NC(=O)c1cnn2c1N(C(=O)Nc1ccccc1F)C(c1ccccc1)C2 (stereo not given) = 8.21

====

Reported pIC50 by item:
# Assay: Antiinflammatory activity in human neutrophils assessed as inhibition of IL8-induced chemotaxis preincubated for 10 mins
# Assay type: functional, cell-based
# Experimental Setup: Neutrophil
pIC50: −log10 of the molar value.
Endpoint Name: pIC50

• O=C(NC1CC1)c1cnn2c1N(C(=O)Nc1cccc(F)c1)C(c1ccccc1)C2 (stereo unspecified) = < 6.00
• O=C(Nc1ccccc1)N1c2ccnn2CC1c1ccccc1 (stereo unspecified) = < 6.00
• O=C(Nc1ccc(F)cc1)N1c2ccnn2CC1c1ccccc1 (stereo unspecified) = < 6.00
• O=C(Nc1ccccc1F)N1c2ccnn2CC1c1ccccc1 (stereo unspecified) = < 6.00
• CCOC(=O)c1cnn2c1N(C(=O)Nc1ccc(F)cc1)C(c1ccccc1)C2 (stereo unspecified) = < 6.00
• NC(=O)c1cnn2c1N(C(=O)Nc1ccc(F)cc1)C(c1ccccc1)C2 (stereo unspecified) = 6.32

====

# Assay: Antiinflammatory activity in human neutrophils assessed as inhibition of IL8-induced chemotaxis preincubated for 10 mins
# Assay type: functional, cell-based
# Experimental Setup: Neutrophil
pIC50: −log10 of the molar value.
Reported pIC50 values follow for various compounds
Endpoint Name: pIC50

• O=C(c1cnn2c1N(C(=O)Nc1ccccc1)C(c1ccccc1)C2)N1CCCCC1 (stereo not drawn) = < 6.00
• CCOC(=O)c1cnn2c1N(C(=O)Nc1ccccc1)C(c1ccccc1)C2 (stereo not drawn) = < 6.00
• O=C(Nc1cccc(F)c1)N1c2ccnn2CC1c1ccccc1 (stereo not drawn) = < 6.00

The measured values listed here are drawn from ChEMBL document CHEMBL1926579.
